Source: PubChem BioAssay (NCI)

Assay: NCI Yeast Anticancer Drug Screen. Data for the mlh1 rad18 strain (AID 175)
Details: S. cerevisiae mlh1 rad18 strain growth inhibition; at 50.0 µM; stronger effect = higher value
This is part of a sample that, as a whole, favours compounds with a hit. Of some 79,000 tested, about 15% had one in any assay. Activity calls are given as the source filed them. Cut-off read from the data, not from the text of the source: active = growth inhibition above about 70%; inactive = the rest.
Catalogue of compounds with associated growth inhibition

# count of solved cases: 6
COMPOUND: COC(C(=O)O)c1ccccc1 (stereo not given)
growth inhibition: 79.5% (active)
//
COMPOUND: COC1=C2C[C@@H](C)C[C@@H](OC)[C@@H](O)[C@H](C)/C=C(\C)[C@@H](OC(N)=O)[C@H](OC)/C=C\C=C(/C)C(=O)NC(=CC1=O)C2=O
growth inhibition: 90% (active)
//
COMPOUND: Cc1ccc(/C=N/Nc2ccc([N+](=O)[O-])cc2[N+](=O)[O-])cc1
growth inhibition: -3.9% (inactive)
//
COMPOUND: CC(=O)CC(C)=O.CCN(CC)CC[C-]=O.[Pd+2]
growth inhibition: 74.9% (active)
//
COMPOUND: c1ccc2c(c1)Cc1cc3ccccc3nc1-2
growth inhibition: 97.2% (active)
//
COMPOUND: c1csc(-c2nccc3c2[nH]c2ccccc23)c1
growth inhibition: 86.7% (active)

[Q] // Input: COc1nc2c(ccn2C2OC(COC(C)=O)C(OC(C)=O)C(OC(C)=O)C2OC(C)=O)c(=O)n1C (stereo not given) . Output its growth inhibition only.
[A] 2.15% (inactive)

[Q] // Input: CN1C(Cl)=NS(=O)(=O)c2ccccc21 . Output its growth inhibition only.
[A] 8.95% (inactive)

[Q] // Input: Cc1cccc(C)c1N=Nc1c(C)nc(N)nc1-c1ccccc1 . Output its growth inhibition only.
[A] 95.3% (active)

[Q] // Input: CC(C)CCCCCCCCCCCCC(=O)NCC(=O)NC1C(O)C(O)C(Nc2ncnc3nc[nH]c23)OC1C(O)CO (stereo not given) . Output its growth inhibition only.
[A] 53.9% (inactive)
